procedure.details: antifungal drug efflux pump blockers, triplex strains – S. cerevisiae, Nile Red, multiplex, primary screen (AID 485275);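 note: Nile Red retained in pooled yeast measured as flow cytometry median fluorescence; higher means more Nile Red kept so more efflux inhibition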
applied.conditions: S. cerevisiae Candida pump triplex, at 10 µM
Screen size: about 330,000 compounds; about 1,400 (0.42%) were called active.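 Rule for the calls: active = plate passing quality check with inhibition over a set limit, or well fluorescence over plate mean plus 4 SD; inactive = the rest.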 The entries come from a sample that favours actives as a whole.
Labels: active, inactive

| compound | label.value |
| --- | --- |
| C[C@@H]1NC(=O)c2cc([N+](=O)[O-])cc(F)c2NCCC[C@@H](C(N)=O)NC(=O)[C@H](CC(N)=O)NC1=O | inactive |
| CCOC(=O)C1CCN(C(=O)CN2C(=O)NC(C)(c3ccc4cc(OC)ccc4c3)C2=O)CC1 (stereo not given) | inactive |
| Cc1cccc(-n2c(C)cc(/C=N\NC(=O)c3cccs3)c2C)c1 | inactive |
| Cc1cc(/C=N/NC(=O)CC2(C)OCCO2)c(C)n1-c1ccc(Cl)c(Cl)c1 | active |
| COc1ccc(CCNS(=O)(=O)c2cn(C)nc2C)cc1 | inactive |
